SYSTEM_TESTED: recombinant eIF4E (Homo sapiens (Human))
TEST_PROTOCOL: Fluorescence polarization competition assay for eIF4E binding potency
MEASUREMENT_SETUP: inhibition of eIF4E/EDA-m7GDP-ATTO-550 binding by 50%; Table 4B calculated values; read-out: IC50
QUANTITY_NAME: IC50 (µM)

SMILES_REPRESENTATION: CCc1cc(-c2cc(Cl)ccc2OCCn2c(C)nc3cnc(C4CC4)c(C#N)c3c2=O)c2scc(C(=O)O)c2n1
SYSTEM_TESTED: recombinant eIF4E (Homo sapiens (Human))
IC50, µM: 0.00481

(I) Cc1cc(-c2cc(Cl)ccc2OCCn2c(C)nc3ccc(CN4CCN(C)CC4)c(C#N)c3c2=O)c2scc(C(=O)O)c2n1
(II) Cc1cc(-c2cc(Cl)ccc2OCCn2c(C)nc3cc(Cl)c(N)c(C#N)c3c2=O)c2scc(C(=O)O)c2n1
Of the two listed items, which has the higher IC50? First: I Second: II Kindly give the label for the entry you pick.
I
(I: 0.0198 µM, II: 0.00597 µM)

(1) Cc1nc2cnc(N(C)C3CCN(CC(F)(F)C4CC4)CC3)c(C#N)c2c(=O)n1CCOc1ccc(Cl)cc1-c1ccnc2c(C(=O)O)csc12
(2) N#Cc1cncc2nc(C(F)F)n(CCOc3ccc(Cl)cc3-c3ccnc4c(C(=O)O)csc34)c(=O)c12
Please indicate which entry, 1 or 2 , has the lower recorded IC50 value. Kindly give the label for the entry you pick.
1

---

SYSTEM_TESTED: recombinant eIF4E (Homo sapiens (Human), UniProt P06730)
Sequence (P06730 whole entry): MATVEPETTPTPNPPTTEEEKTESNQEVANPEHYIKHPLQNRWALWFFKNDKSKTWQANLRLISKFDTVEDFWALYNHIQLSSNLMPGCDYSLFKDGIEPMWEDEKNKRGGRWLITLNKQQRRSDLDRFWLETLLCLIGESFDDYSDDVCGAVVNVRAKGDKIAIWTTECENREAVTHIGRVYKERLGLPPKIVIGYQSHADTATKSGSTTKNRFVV
TEST_PROTOCOL: Fluorescence polarization competition assay for eIF4E binding potency
MEASUREMENT_SETUP: inhibition of eIF4E/EDA-m7GDP-ATTO-550 binding; calculated IC50 values, Table 4B; read-out: IC50
Experimental: Compounds were screened for eIF4E binding potency using a fluorescence polarization competition assay. All binding reactions were performed in fluorescence polarization buffer (FPB) containing 20 mM Tris pH 7.5, 100 mM NaCl, 1 mM DTT, and 0.02% Tween-20. Final binding reactions contained 75 nM recombinant eIF4E (Beryllium, custom order), 20 nM EDA-m^7GDP-ATTO-550 (Jena Bioscience, NU-827-550) and varying concentrations of the inhibitory compound of interest. […]
QUANTITY_NAME: IC50 (nM)

Reference set, count: 4
COMPOUND: Cc1nc2cnc(N3CCN(CC(F)C(F)(F)F)CC3)c(C#N)c2c(=O)n1CCOc1ccc(Cl)cc1-c1ccnc2c(C(=O)O)csc12 (stereo not drawn) [compound 1358]
SYSTEM_TESTED: recombinant eIF4E (Homo sapiens (Human), UniProt P06730)
QUANTITY_NAME: IC50
RESULT_UNIT: nM
RECORDED_NUMBER: 18.3
//
COMPOUND: Cc1nc2cnc(N3CCN(C(C)CF)CC3)c(C#N)c2c(=O)n1CCOc1ccc(Cl)cc1-c1ccnc2c(C(=O)O)csc12 (stereo not drawn) [compound 1424]
SYSTEM_TESTED: recombinant eIF4E (Homo sapiens (Human), UniProt P06730)
QUANTITY_NAME: IC50
RESULT_UNIT: nM
RECORDED_NUMBER: 29.2
//
COMPOUND: Cc1nc2cnc(N(C)C3[C@@H]4CC[C@H]3CN(CC(C)(F)F)C4)c(C#N)c2c(=O)n1CC#Cc1ccc(Cl)cc1-c1ccnc2c(C(=O)O)csc12 (stereo partly drawn) [compound 1575]
SYSTEM_TESTED: recombinant eIF4E (Homo sapiens (Human), UniProt P06730)
QUANTITY_NAME: IC50
RESULT_UNIT: nM
RECORDED_NUMBER: 14.7
//
COMPOUND: CCOP(=O)(OCC)c1csc2c(-c3cc(Cl)ccc3OCCn3c(C)nc4cc(C(F)(F)F)c(N5CCN(C)CC5)c(C#N)c4c3=O)ccnc12 [compound 1612]
SYSTEM_TESTED: recombinant eIF4E (Homo sapiens (Human), UniProt P06730)
QUANTITY_NAME: IC50
RESULT_UNIT: nM
RECORDED_NUMBER: 13.7

(P) Cc1nc2cnc(N(C)[C@H]3CC[C@H](N(C)CC(F)F)CC3)c(C#N)c2c(=O)n1CC#Cc1ccc(Cl)cc1-c1ccnc2c(C(=O)O)csc12 [compound 1895]
(Q) Cc1cc(-c2cc(Cl)ccc2OCCn2c(C)nc3cc(C(F)(F)F)c(N4CCN(C5COC5)CC4)c(C#N)c3c2=O)c2scc(C(=O)O)c2n1 [compound 1242]
Of the two listed items, which has the higher IC50? First: P Second: Q Kindly give the label for the entry you pick.
P
